# credit: patent US20260183297A1

target entity: FADS1 (Mus musculus, UniProt Q920L1)
Construct: Liver from ^13C5-DGLA dosed DIO mice was collected for pharmacodynamic (PD) analysis; from tissue; host or cells: living DIO C57Bl/6 mice; 13C5-DGLA to 13C5-AA conversion read in liver (A4) or blood plasma (A5)
Sequence (Q920L1 whole entry): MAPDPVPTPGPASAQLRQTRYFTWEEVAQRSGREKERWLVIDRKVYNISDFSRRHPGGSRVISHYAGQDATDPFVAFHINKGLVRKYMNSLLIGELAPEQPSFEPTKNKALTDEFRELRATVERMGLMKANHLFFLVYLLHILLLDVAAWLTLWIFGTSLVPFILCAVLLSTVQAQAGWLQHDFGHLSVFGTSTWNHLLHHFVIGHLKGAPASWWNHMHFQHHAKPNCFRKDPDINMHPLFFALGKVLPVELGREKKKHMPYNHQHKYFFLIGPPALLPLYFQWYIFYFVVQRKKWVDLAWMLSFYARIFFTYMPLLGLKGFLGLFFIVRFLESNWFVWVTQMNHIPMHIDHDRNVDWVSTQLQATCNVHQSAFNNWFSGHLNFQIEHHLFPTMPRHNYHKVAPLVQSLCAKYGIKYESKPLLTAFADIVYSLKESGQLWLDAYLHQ
method notes: In vivo FADS1 activity measurement using blood plasma (13C5-DGLA to 13C5-AA conversion)
condition description: mouse; DIO mice, single oral dose 30 mg/kg, 24 hours after dosing
As shown below, each of these molecules has a reported inhibition at 30 mg/kg value.
Numeric only. Scale: %

{"sample smiles": "N#Cc1ccn2c(=O)c(-c3cnn(CC(F)(F)C(F)(F)F)c3)c(C(F)(F)F)nc2c1", "parameter": "inhibition at 30 mg/kg", "experimental value": 97.1}
{"sample smiles": "COc1ccn2c(=O)c(-c3cnn(CC(F)(F)C(F)(F)F)c3)c(C(F)(F)F)nc2n1", "parameter": "inhibition at 30 mg/kg", "experimental value": 96.3}
{"sample smiles": "COc1ccn2c(=O)c(-c3ccc(O[C@H](C)C#N)cc3)c(C(F)(F)F)nc2n1", "parameter": "inhibition at 30 mg/kg", "experimental value": 3.7}

Please examine the following record next.
Req: Please indicate inhibition at 30 mg/kg recorded for O=c1c(-c2ccc(OCC(F)(F)F)cc2)c(C(F)(F)F)nc2cc(CO)ccn12
Resp: 58.3
